Below are IC50 values measured for SOS1 catalytic domain (residues 564-1049) (Homo sapiens).

>  <MOLECULE>
C[C@@H](Nc1nc(Cl)nc2c1CN(C(=O)C1CN(C3CCOC3)C1)C2)c1cccc(C(F)F)c1F (some centres unmarked)

>  <IC50>
< 1000 nM

$$$$
>  <MOLECULE>
C[C@@H](Nc1nc(C2CNC2)nc2c1CN(C(=O)N1CCOCC1)C2)c1cccc(C(F)F)c1F

>  <IC50>
< 1000 nM

$$$$
>  <MOLECULE>
COC1COCCC1CC(=O)N1Cc2nc(Cl)nc(N[C@H](C)c3cc(N)cc(C(F)(F)F)c3)c2C1 (some centres unmarked)

>  <IC50>
< 1000 nM

$$$$
>  <MOLECULE>
C[C@@H](Nc1nc(Cl)nc2c1CN(C(=O)C1CCN(C)CC1)C2)c1cc(N)cc(C(F)(F)F)c1

>  <IC50>
< 1000 nM

$$$$
>  <MOLECULE>
COC1(C(=O)N2Cc3nc(C(F)(F)CO)nc(N[C@H](C)c4cccc(C(F)F)c4F)c3C2)CCOCC1

>  <IC50>
< 1000 nM

$$$$
>  <MOLECULE>
C[C@@H](Nc1nc(Cl)nc2c1CN(C(=O)C13CCN(CC1)CC3)C2)c1cccc(C(F)F)c1F

>  <IC50>
< 1000 nM

$$$$
>  <MOLECULE>
C[C@@H](Nc1nc(Cl)nc2c1CN(C(=O)N1CCN(C)CC(F)(F)C1)C2)c1cccc(C(F)F)c1F

>  <IC50>
< 1000 nM

$$$$
>  <MOLECULE>
C[C@@H](Nc1ncnc2c1CC(N1CCOCC1)C(=O)N2C)c1cc(N)cc(C(F)(F)F)c1 (some centres unmarked)

>  <IC50>
< 1000 nM

$$$$
>  <MOLECULE>
CC1CNCCN1C(=O)N1Cc2nc(Cl)nc(N[C@H](C)c3cccc(C(F)F)c3F)c2C1 (some centres unmarked)

>  <IC50>
< 1000 nM

$$$$
>  <MOLECULE>
C[C@@H](Nc1nc(Cl)nc2c1CN(C(=O)N1CCN(C)C(c3ccncc3)C1)C2)c1cccc(C(F)F)c1F (some centres unmarked)

>  <IC50>
< 1000 nM

$$$$
>  <MOLECULE>
C[C@@H](Nc1nc(Cl)nc2c1CN(C(=O)C1(F)CNC1)C2)c1cccc(C(F)F)c1F

>  <IC50>
< 1000 nM

$$$$
>  <MOLECULE>
C[C@@H](Nc1nc(Cl)nc2c1CN(C(=O)[C@@H]1C[C@@H]1C#N)CC2)c1cc(N)cc(C(F)(F)F)c1

>  <IC50>
> 1000 nM

$$$$
>  <MOLECULE>
C[C@@H](Nc1nc(Cl)nc2c1CN(C(=O)N1CCOc3ccncc31)C2)c1cc(N)cc(C(F)(F)F)c1

>  <IC50>
< 1000 nM

$$$$
>  <MOLECULE>
C[C@@H](Nc1nc(Cl)nc2c1CN(C(=O)N1CCC(C)(O)CC1)C2)c1cc(N)cc(C(F)(F)F)c1

>  <IC50>
< 1000 nM

$$$$
>  <MOLECULE>
C[C@@H](Nc1nc(Cl)nc2c1C[C@@H](N1CCOCC1)CC2)c1cccc(C(F)(F)CO)c1

>  <IC50>
< 1000 nM

$$$$
>  <MOLECULE>
C[C@@H](Nc1nc(Cl)nc2c1CN(C(=O)N1CCOCC1)C2)c1cccc(C(F)(F)F)n1

>  <IC50>
> 1000 nM

$$$$
>  <MOLECULE>
COc1ccc2c(c1)OCCN2C(=O)N1Cc2nc(Cl)nc(N[C@H](C)c3cc(N)cc(C(F)(F)F)c3)c2C1

>  <IC50>
> 1000 nM

$$$$
>  <MOLECULE>
C[C@@H](Nc1nc(Cl)nc2c1CN(C(=O)C1CCNCC1(F)F)C2)c1cccc(C(F)F)c1F (some centres unmarked)

>  <IC50>
< 1000 nM

$$$$
>  <MOLECULE>
C[C@@H](Nc1nc(Cl)nc2c1CN(C(=O)N1CCNCC(F)(F)C1)C2)c1cccc(C(F)F)c1F

>  <IC50>
< 1000 nM

$$$$
>  <MOLECULE>
C[C@@H](Nc1nc(Cl)nc2c1CN(C(=O)c1ccc(N3CCOCC3)cn1)C2)c1cc(N)cc(C(F)(F)F)c1

>  <IC50>
> 1000 nM

$$$$
>  <MOLECULE>
C[C@@H](Nc1nc(Cl)nc2c1CN(C(=O)N1CCOCC1)C2)c1cccc(C(F)(F)CO)c1

>  <IC50>
< 1000 nM

$$$$
>  <MOLECULE>
C[C@@H](Nc1nc(Cl)nc2c1CC(N1CCOCC1)CC2)c1cccc(C(F)(F)F)c1 (some centres unmarked)

>  <IC50>
< 1000 nM

$$$$
>  <MOLECULE>
COCC1(S(=O)(=O)N2CCc3nc(Cl)nc(N[C@H](C)c4cc(N)cc(C(F)(F)F)c4)c3C2)CCC1

>  <IC50>
< 1000 nM

$$$$
>  <MOLECULE>
C[C@@H](Nc1nc(Cl)nc2c1CN(C(=O)c1cnc3[nH]ccc3c1)C2)c1cc(N)cc(C(F)(F)F)c1

>  <IC50>
> 1000 nM

$$$$
>  <MOLECULE>
CO[C@H]1C[C@H](C(=O)N2CCc3nc(Cl)nc(N[C@H](C)c4cc(N)cc(C(F)(F)F)c4)c3C2)C1

>  <IC50>
> 1000 nM

$$$$
>  <MOLECULE>
COCC1(C(=O)N2CCc3nc(Cl)nc(N[C@H](C)c4cc(N)cc(C(F)(F)F)c4)c3C2)CC1

>  <IC50>
> 1000 nM

$$$$
>  <MOLECULE>
C[C@@H](Nc1nc(Cl)nc2c1CC1(CC2)OCCO1)c1cc(N)cc(C(F)(F)F)c1

>  <IC50>
> 1000 nM

$$$$
>  <MOLECULE>
COc1ncc(C(=O)N2Cc3nc(Cl)nc(N[C@H](C)c4cc(N)cc(C(F)(F)F)c4)c3C2)cn1

>  <IC50>
> 1000 nM

$$$$
>  <MOLECULE>
C[C@@H](Nc1nc(Cl)nc2c1CN(C(=O)N1CCOCC1)C2)c1cccc(C(C)(F)F)c1

>  <IC50>
< 1000 nM

$$$$
